test system: Malme-3M; test: NCI tumour cell line growth inhibition, 48 h
Activity calls are given as the source filed them. No stated cut-off is given here; in the data, active = GI50 up to about 1.1 µM and inactive = higher.

{"molecule": "COc1nc2ncc([C@@H](OC(C)=O)[C@@H](COC(C)=O)OC(C)=O)nc2c(=O)[nH]1", "GI50": "> 100 µM (inactive)"}
{"molecule": "O=C(c1nc2ccccc2nc1O)C(O)c1ccco1 (stereo unspecified)", "GI50": "> 100 µM (inactive)"}
{"molecule": "CCCOc1cc2c(cc1O)CC[C@@H]1[C@@H]2CC[C@]2(C)[C@@H](O)CC[C@@H]12", "GI50": "6.82 µM (inactive)"}
{"molecule": "CC(=O)C1C(=O)C(=O)N(c2ccccc2C(C)C)C1=O (stereo unspecified)", "GI50": "> 100 µM (inactive)"}
{"molecule": "CC(=O)NC1C(OCc2ccccc2)OC(CO)C(O)C1OCC(=O)N1CCCC1C(=O)N[C@@H](CCC(=O)NCCCCNc1c2ccccc2nc2cccc([N+](=O)[O-])c12)C(N)=O (stereo partly specified)", "GI50": "33.3 µM (inactive)"}
{"molecule": "N#C/C(=C\\c1ccc(O)cc1O)C(N)=O", "GI50": "90.8 µM (inactive)"}
{"molecule": "COC(=O)c1ccccc1/C=C1\\Cc2ccc3c(c2C1=O)CCC3", "GI50": "> 100 µM (inactive)"}
{"molecule": "C=C1C(=O)OC2C1C(OC(=O)/C(C)=C\\C)CC1(CO1)C1C(O)C=C(C)C21O (stereo unspecified)", "GI50": "2.74 µM (inactive)"}
{"molecule": "Cc1ccc(-c2cc(-c3ccc(Cl)cc3)nc(/N=C3\\C(=O)N(CN4CCCCC4)c4ccc(Cl)cc43)n2)cc1", "GI50": "84.3 µM (inactive)"}
{"molecule": "CCOC(=O)[C@H]1Nc2c(cccc2[N+](=O)[O-])C2c3ccccc3CC21 (stereo partly specified)", "GI50": "> 100 µM (inactive)"}
{"molecule": "COc1ccc(C)cc1NC(=S)N/N=C/c1ccco1", "GI50": "52.2 µM (inactive)"}
{"molecule": "C=C1C(=O)OC2CC(C)C(C(O)CC(C)O)=CCC12 (stereo unspecified)", "GI50": "7.74 µM (inactive)"}
{"molecule": "CCCCc1ccc(N2C(=O)c3cc(C)cnc3S2(=O)=O)cc1", "GI50": "> 100 µM (inactive)"}
{"molecule": "CCOC(=O)c1c(C)noc1/N=N/N(CCO)CCO", "GI50": "45.1 µM (inactive)"}
{"molecule": "C#CCN(CC#C)C(=O)C(=O)c1c[nH]c2ccc(OC)cc12", "GI50": "17.2 µM (inactive)"}
{"molecule": "CN(C)CCCNc1ccc2nnn3c4ccc(O)cc4c(=O)c1c23", "GI50": "10.3 µM (inactive)"}
{"molecule": "COc1ccc(/C(Cl)=C(\\CNc2ccccn2)c2ccccc2)cc1OC", "GI50": "> 100 µM (inactive)"}
{"molecule": "Cc1cc(S(=O)(=O)O)c(NC(=O)C(=O)Cc2cc(=O)oc3cc(O)ccc23)cc1Cl", "GI50": "> 100 µM (inactive)"}
{"molecule": "Cc1cc(S(=O)(=O)N/C(=N/N)NCCc2ccccc2)c(S)cc1Cl", "GI50": "22 µM (inactive)"}
{"molecule": "CC(O)CNC1=CC(=O)C(=O)c2ccccc21 (stereo unspecified)", "GI50": "4.15 µM (inactive)"}
{"molecule": "CC1(C)Oc2ccc3c(=O)c(-c4ccccc4)c(-c4ccccc4)oc3c2C1C(=O)O (stereo unspecified)", "GI50": "> 100 µM (inactive)"}

----------
test system: A498; experiment: NCI tumour cell line growth inhibition, 48 h
Active and inactive are the calls of the source. No stated cut-off is given here; in the data, active = GI50 up to about 1.1 µM and inactive = higher.

{"compound": "C=C=C(CC1CCCCC1=O)S(=O)(=O)c1ccccc1 (centres undefined)", "system under test": "A498", "GI50": "> 10 µM (inactive)"}
{"compound": "CC(=O)NC1C(OCc2ccccc2)OC(CO)C(O)C1OCC(=O)N1CCCC1C(=O)N[C@@H](CCC(=O)NCCCCNc1c2ccccc2nc2cccc([N+](=O)[O-])c12)C(N)=O (some centres undefined)", "system under test": "A498", "GI50": "35.7 µM (inactive)"}
{"compound": "COc1cc2ccnc(-c3n[nH]c4cc(OC)c(OC)cc34)c2cc1OC", "system under test": "A498", "GI50": "> 100 µM (inactive)"}
{"compound": "COc1ccc(/C=C/c2cc(OC)c(OC)c(OC)c2)cc1O[Si](C)(C)C(C)(C)C", "system under test": "A498", "GI50": "12.7 µM (inactive)"}
{"compound": "c1ccc2c(Cc3nnc4sc(SSc5nn6c(Cc7c[nH]c8ccccc78)nnc6s5)nn34)c[nH]c2c1", "system under test": "A498", "GI50": "11.3 µM (inactive)"}
{"compound": "CC(=O)N(C(C)=O)c1ncc(-n2nc(-c3ccccc3)cc2-c2ccccc2)c(-c2ccccc2)n1", "system under test": "A498", "GI50": "> 10 µM (inactive)"}
{"compound": "Cc1cc(N)ccc1/N=N\\c1ccc(S(=O)(=O)CCOS(=O)(=O)O)cc1", "system under test": "A498", "GI50": "11.2 µM (inactive)"}
{"compound": "O=C(CN1CCOCC1)c1ccc2[nH]c(=O)oc2c1", "system under test": "A498", "GI50": "> 100 µM (inactive)"}
{"compound": "O=C(CC(c1ccccc1)C(C(=O)c1ccncc1)C(CC(=O)c1ccncc1)c1ccccc1)c1ccncc1 (centres undefined)", "system under test": "A498", "GI50": "71.8 µM (inactive)"}

----------
test system: TK-10; experiment: NCI tumour cell line growth inhibition, 48 h
Active and inactive are the calls of the source. No stated cut-off is given here; in the data, active = GI50 up to about 1.1 µM and inactive = higher.
Outcomes: active, inactive

{"compound": "COc1ccc2c(c1O)C13CCN(C)C(C2)C1CCC1(C3)OCCO1 (stereo not given)", "label value": "inactive"}
{"compound": "c1ccc(C[n+]2ccc3c(c2)CCCC3)cc1", "label value": "inactive"}
{"compound": "Cc1cc(Cl)ccc1NC(=O)C(=O)C(C(=O)c1ccccc1)C1OC(=O)c2ccccc21 (stereo not given)", "label value": "inactive"}
{"compound": "CC1(C)CC[C@]2(C)CC=C3[C@]4(C)CC[C@H]5C(C)(C)C(=O)CC[C@]5(C)[C@H]4CC[C@@]3(C)[C@H]2C1", "label value": "inactive"}
{"compound": "CSc1nc(O)c(C#N)c(-c2ccccc2)n1", "label value": "inactive"}
{"compound": "CCCc1ccc(/N=C\\c2cc(OC)c(OC)c(OC)c2)cc1", "label value": "inactive"}
{"compound": "COC(=O)C1=C(C(=O)OC)C(N(C)C)C(C(=O)OC)=C(C(=O)OC)S1", "label value": "inactive"}
{"compound": "COc1cc(OCCN(C)C)c2[nH]c(C(=O)N3CC(CCl)c4c3cc(N)c3ccccc43)cc2c1 (stereo not given)", "label value": "active"}
{"compound": "Cc1cc(NC(=O)NC(=O)c2ccccc2NC(=O)CN(C)C)ccc1Oc1ncc(Br)cn1", "label value": "inactive"}
{"compound": "O=C(CCc1ccc(O)c(O)c1)NCCc1ccccc1", "label value": "inactive"}

----------
system: MDA-MB-435; experiment: NCI tumour cell line growth inhibition, 48 h
Active and inactive are the calls of the source. Rule as the data show it: active = GI50 up to about 1.1 µM and inactive = higher.
Outcomes: t (active), f (inactive)

{"compound": "O=C(NNC(=O)c1c(Cl)c(Cl)c(Cl)c(Cl)c1-c1nc2ccccc2[nH]1)c1ccc(Cl)cc1", "label value": "f"}
{"compound": "COC(=O)/C=C\\[C@@H]1[C@H](C)N1S(=O)(=O)c1ccc(C)cc1 (some centres undefined)", "label value": "f"}
{"compound": "CC(C)=CCN1c2ccccc2[C@@]2(CC=C(C)C)CCN(C)[C@@H]12 [(+)-DEBROMOFLUSTRAMINE B]", "label value": "f"}
{"compound": "COC(=O)c1ccc2c(c1)CCN2C(=O)c1cc2c(cc1Br)OCO2", "label value": "t"}
{"compound": "Cc1cc(S(=O)(=O)n2ccnc2Oc2ccccc2)c(SSc2cc(Cl)c(C)cc2S(=O)(=O)n2ccnc2Oc2ccccc2)cc1Cl", "label value": "f"}
{"compound": "CC1CC/C(=C\\c2ccc(F)cc2)C2=C1C(c1ccc(F)cc1)N1C(=O)CSC1=N2 (centres undefined)", "label value": "f"}
{"compound": "COc1cc(OCCN(C)C)c2[nH]c(C(=O)N3CC(CCl)c4c3cc(N)c3ccccc43)cc2c1 (centres undefined)", "label value": "t"}
{"compound": "Cc1cc(C)nc(SCCc2cccc[n+]2C)n1", "label value": "f"}
{"compound": "CC(=O)OCCn1c(Cc2ccc([N+](=O)[O-])cc2)nn(C(C)=O)c1=O", "label value": "f"}

----------
tested on: SN12C; assay: NCI tumour cell line growth inhibition, 48 h
The source made the active and inactive calls. Rule as the data show it: active = GI50 up to about 1.1 µM and inactive = higher.
Outcomes: active, inactive

{"compound": "O=C(Nc1cccc2c1C(=O)c1c(NC(=O)c3ccccc3)ccc(Nc3cccc4c3C(=O)c3ccccc3C4=O)c1C2=O)c1ccccc1", "label value": "inactive"}
{"compound": "Cc1c2ccccc2cc2cccc[n+]12", "label value": "inactive"}
{"compound": "COC(=O)C1OC(O[C@H]2CC[C@]3(C)[C@H]4CC=C5[C@@H]6CC(C)(C)CC[C@]6(C(=O)OC6OCC(O)C(O)C6OC6OC(C)C(OC7OCC(O)C(O)C7O)C(OC7OCC(O)(CO)C7O)C6O)[C@H](O)C[C@@]5(C)[C@]4(C)CC[C@H]3C2(C)C)C(O)C(O)C1O (stereo partly specified)", "label value": "inactive"}
{"compound": "O=C1OC(=O)c2c1c(-c1ccccc1)nc1ccccc21", "label value": "inactive"}
{"compound": "COC(=O)[C@@H]1Cc2c([nH]c3ccccc23)[C@H](c2ccccc2)N1", "label value": "inactive"}
{"compound": "O=C(CN1CCOCC1)c1ccc2[nH]c(=O)oc2c1", "label value": "inactive"}
{"compound": "CN1COc2c(n(C)c(=O)[nH]c2=O)C1", "label value": "inactive"}
{"compound": "CC1=CCP(C(F)(F)F)P(C(F)(F)F)C1 (stereo unspecified)", "label value": "inactive"}
{"compound": "CON(C)C(=O)CNC(=O)OCC1c2ccccc2-c2ccccc21", "label value": "inactive"}
{"compound": "CNC(=O)OCc1c2ccncc2c(C)c2c1[nH]c1ccccc12", "label value": "active"}
{"compound": "COc1ccc2[nH]c(C(=O)N3CC(CCl)c4ccc(N)cc43)cc2c1 (stereo unspecified)", "label value": "active"}
{"compound": "COc1ccc(Cc2coc3ccccc3c2=O)cc1OC", "label value": "inactive"}
{"compound": "C/C=C(C)/C=C/CC(C)CCC=C(C)C (stereo unspecified)", "label value": "inactive"}
{"compound": "COc1ccc(C23C(=O)c4ccccc4N2O[C@H]2C(=O)N(c4ccccc4)C(=O)[C@H]23)cc1 (stereo partly specified)", "label value": "inactive"}
{"compound": "Cc1ccc(-c2n[nH]c(CC#N)n2)cc1", "label value": "inactive"}
{"compound": "O=C(c1ccccc1)n1cc(/C=C/[N+](=O)[O-])c2ccccc21", "label value": "inactive"}
